Let's look at some compounds and their measured Growth Rate.
- Test system: Fibroblast
- Protocol Text: Incucyte cell viability with human fibroblast; further: unitless GR value; below 1 slowed growth and below 0 cell loss
- Format: toxicity, cell-based
- Experimental Parameters: 18 h, 10 µM, compound concentration 10 uM, replicate number 2
Write the value as a bare number.

Inquiry: Entry "COCCOCn1c(S(C)(=O)=O)nc2c1c(=O)n(C)c(=O)n2C" : reported Growth Rate = ?
Reply text: 0.24

Inquiry: I would be grateful if you could share the reported Growth Rate for "Nc1ncc2c(n1)-c1c([nH]c3ccc(C4CC4)cc13)CCCC2" .
Reply text: 0.79

Inquiry: # get_value(readout='Growth Rate', item= "CC(C)Oc1ccc(F)c(-c2cnc(N)c(C(=O)Nc3cnccc3N3CCC[C@@H](C(=O)O)C3)n2)c1" )
Reply text: 0.97

Inquiry: Fill in: Growth Rate of "COc1cc(OC)cc(-c2cc3cnc(N)nc3nc2NC(=O)NC(C)(C)C)c1" is ___
Reply text: 0.45

Inquiry: What Growth Rate value was documented for this compound, "CCc1cc2c(cc1-c1cccc(S(=O)(=O)F)c1)C(C)(C)c1[nH]c3cc(C#N)ccc3c1C2=O" ?
Reply text: 0.89

Inquiry: Can you share its Growth Rate? I mean this compound: "CCCOc1cnc(CN/C=C2\C(=O)NC(=O)c3ccc(I)cc32)cc1O"
Reply text: 0.1

Inquiry: State the recorded Growth Rate for this entry: "CCN(C(=O)c1cc(F)ccc1Oc1cncnc1N1CC2(CCN(C[C@H]3CC[C@H](NS(=O)(=O)CC)CC3)CC2)C1)C(C)C"
Reply text: 0.88

Inquiry: // lookup Growth Rate for "O=C(Cc1ccccc1)Nc1nnc(N2CC[C@@H]3[C@H]2CN3c2cccnn2)s1"
Reply text: 0.69

Inquiry: Please give the measured Growth Rate for this compound: "COc1cc([N+](=O)[O-])ccc1NC(=O)c1ccccc1O"
Reply text: 0.65

---

- Tested on: Fibroblast
- Protocol Text: Incucyte cell viability with human fibroblast; further: unitless GR value; below 1 slowed growth and below 0 cell loss
- Assay type: toxicity, cell-based
- Experimental Parameters: 24 h, 10 µM, compound concentration 10 uM, replicate number 1
Label key: True means Growth Rate under 0.6; False means Growth Rate of 0.6 or more.

O=C1NCc2ccc3c(-c4cccc(Cl)c4)c[nH]c3c21 :: True

Inquiry: Growth Rate strictly < 0.6 for this compound? "Cn1cncc1-c1cn(-c2cccc(C(=O)Nc3cccc(C(F)(F)F)c3)c2)nn1"
Reply text: True

Inquiry: Could you please tell me whether Growth Rate recorded for CN1CCN(c2ccnc(NCCc3ccccc3)n2)CC1 [TP-040n] is less than 0.6?
Reply text: True

Inquiry: Does the reported Growth Rate of "CC[C@H](CO)Nc1nc(Nc2cccc(-c3ccccn3)c2)c2ncn(C(C)C)c2n1.Cl.O" stay below 0.6?
Reply text: True

Inquiry: Determine whether this compound shows Growth Rate lower than 0.6 (ties excluded): "CCN1C(=O)/C(=C(\NC2CCN(C)CC2)c2ccc3c(c2)OCO3)c2cc(C(C)=O)ccc21"
Reply text: False

Inquiry: Threshold test, Growth Rate < 0.6: "Cc1cc(-c2cc3ncccc3c(OC[C@H]3CCCNC3)n2)ccc1N(C)C.O=C(O)C(F)(F)F"
Reply text: False

Inquiry: I'd appreciate it if you could check whether "NC(=O)OC[C@H](NC(=O)Cn1nc(-c2ccc(Cl)cc2)n(C[C@H](O)C(F)(F)F)c1=O)c1cccc(C(F)(F)F)c1" has Growth Rate smaller than 0.6.
Reply text: False

Inquiry: Take the compound CC(C)(C[C@H]1CN(S(=O)(=O)c2cccc(C(F)(F)F)c2)c2cc(-c3cc(F)cc(OC(F)F)c3)ccc2O1)C(=O)O [CINTIRORGON] and say whether its Growth Rate is less than 0.6.
Reply text: True

---

The entries below are paired with their reported Growth Rate.
- Tested on: Fibroblast
- Protocol Text: Incucyte cell viability with human fibroblast; further: unitless GR value; below 1 slowed growth and below 0 cell loss
- Assay type: toxicity, cell-based
- Experimental Parameters: 0 h, 10 µM, compound concentration 10 uM, replicate number 1
# respond with the number and nothing more

CCCS(=O)(=O)Nc1ccc(F)c(Nc2ncnc3cnc(-n4cnc(C)c4)nc23)c1F :: -0.99
COc1ccc(F)c(F)c1C(=O)c1cnc(NC2CCN(S(C)(=O)=O)CC2)nc1N [RG-547] :: -1
O=C1Nc2ccc(I)cc2/C1=C/c1cc(Br)c(O)c(Br)c1 :: -1

Inquiry: Name the reported Growth Rate value associated with the compound "COc1cc(/C=C(\C#N)C(=O)Nc2nnc(C(F)(F)F)s2)ccc1OCc1ccc(C(F)(F)F)cc1C(F)(F)F"
Reply text: -0.12

Inquiry: Any idea what its Growth Rate is? The compound is CN[C@@H](C)C/C=C/c1cncc(OC(C)C)c1 [ISPRONICLINE]
Reply text: -0.27

Inquiry: Give the measured Growth Rate of "Cc1cc2nc(N3CCC(C(=O)NC4CCCC4)CC3)n(C(C)C)c2cc1C" .
Reply text: -1

Inquiry: Find the recorded Growth Rate belonging to "N=C(N)NCCC[C@H](NC(=O)C(c1ccccc1)c1ccccc1)C(=O)NCc1ccc(CNC(N)=O)cc1.O=C(O)C(F)(F)F" and report it.
Reply text: -1

Inquiry: State the recorded Growth Rate for this entry: "NC(=O)c1cc(-c2ccnc(NC3CCCCC3)c2)nc(N2CCNCC2)c1"
Reply text: -0.81

Inquiry: Consider the compound shown here: "c1ccc2c(-c3coc4cc(-c5ccc(N6CCNCC6)cc5)cnc34)ccnc2c1" What is its recorded Growth Rate?
Reply text: 0.87

---

- Test system: HEK-293T
- Protocol Text: Incucyte cell viability with HEK293T; further: unitless GR value; below 1 slowed growth and below 0 cell loss
- Format: toxicity, cell-based
- Experimental Parameters: human, 24 h, 10 µM, compound concentration 10 uM, replicate number 2
Kindly apply the following: y if Growth Rate is less than 0.8, n in every other case.

Inquiry: Quick check: does "CC(C=CC1=C(C)CCCC1(C)C)=CC=CC(C)=CC(=O)O" have Growth Rate under 0.8?
Reply text: y

Inquiry: Just wondering, is Growth Rate of "CN1CCN(C(=O)Cc2ccc(N/C(=C3\C(=O)Nc4cc(Cl)ccc43)c3ccccc3)cc2)CC1" below 0.8?
Reply text: y

Inquiry: Here's an entry: "CC(C)(C)c1cnc(CSc2cnc(NC(=O)C3CCNCC3)s2)o1" . Is its Growth Rate below 0.8?
Reply text: y

Inquiry: Hi there! Is Growth Rate for "CC(C)(O)c1cn(-c2ccc(-c3cccc(S(C)(=O)=O)c3)cc2)c(C(C)(C)c2ccccc2Cl)n1" below 0.8, do you know?
Reply text: n

Inquiry: Take the compound COCCNC1CCC(Nc2cc(-c3csc(NCC4(C#N)CCOCC4)n3)c(Cl)cn2)CC1 (centres undefined) and say whether its Growth Rate is less than 0.8.
Reply text: y

Inquiry: Is it true that Growth Rate reported for "Cl.O=C(NCCN1CCC2(CC1)C(=O)NCN2c1cccc(F)c1)c1ccc2ccccc2c1" is less than 0.8?
Reply text: y

Inquiry: Consider the compound "Cn1nccc1Nc1nccc(-c2cc3c(s2)C(C)(C)N(CCN2CCOCC2)C3=O)n1" . Is its Growth Rate strictly less than 0.8?
Reply text: n

Inquiry: Take the compound "CC(=O)N1CCC(c2ccc(C(=O)NC(=N)N)cc2C(F)(F)F)CC1" and say whether its Growth Rate is less than 0.8.
Reply text: n

---

This listing pairs compounds with measured Growth Rate.
- Test system: Fibroblast
- Protocol Text: Incucyte cell viability with human fibroblast; further: unitless GR value; below 1 slowed growth and below 0 cell loss
- Type: toxicity, cell-based
- Experimental Parameters: 18 h, 10 µM, compound concentration 10 uM, replicate number 1
Lab note: record just the number, no unit beside it.

Study these solved cases before continuing.
Cc1c(NC(=O)COc2ccc(Cl)cc2C(=O)c2cc(F)cc(C(F)(F)F)c2)ccc(C(=O)O)c1F [BI 2540] :: 0.85
CC(C)(C)c1cnc(CSc2cnc(NC(=O)C3CCNCC3)s2)o1 [BMS-387032] :: 0.32
Cn1cc(-n2cnc3c(NCc4nc5cc(Cl)c(Cl)cc5[nH]4)nc(N4CCOCC4)nc32)cn1 :: 0.46
CO[C@H]1C[C@@H]2CC[C@@H](C)[C@@](O)(O2)C(=O)C(=O)N2CCCC[C@H]2C(=O)O[C@H]([C@H](C)C[C@@H]2CC[C@@H](O)[C@H](OC)C2)CC(=O)[C@H](C)/C=C(\C)[C@@H](O)[C@@H](OC)C(=O)[C@H](C)C[C@H](C)/C=C/C=C/C=C/1C [SIROLIMUS] :: 0.23
O=C1CCCN1CCNc1nc(Nc2ccc(Cl)c(Cl)c2)ncc1C(F)(F)F :: 0.65

Inquiry: Would you mind telling me what Growth Rate value was observed for "C[C@@H](CO)CCC[C@@H](C)[C@H]1CC[C@H]2[C@@H]3CC=C4C[C@@H](O)CC[C@]4(C)[C@H]3CC[C@]12C" ?
Reply text: 0.33

Inquiry: Can you look up the measured Growth Rate of "Cn1cc(-c2ccc3occ(-c4cccc(-c5ccncc5)c4)c3n2)cn1" for me?
Reply text: 0.07

Inquiry: Which Growth Rate reading was recorded for the compound "Cc1ccc(NC(=O)c2ccc3cnccc3c2)cc1C(=O)Nc1cnc(Nc2cccc(NC3CCN(C(=O)/C=C/CN(C)C)CC3)c2)nc1" ?
Reply text: -0.78

src = ChEMBL document CHEMBL5303304
